- Tested on: NCI-H460
- assay.text: NCI tumour cell line growth inhibition, 48 h
Activity calls are given as the source filed them. Rule as the data show it: active = GI50 up to about 1.1 µM and inactive = higher.
Thanks in advance; please answer with one of these: 1 (yes) for active, 0 (no) for inactive

Field: example entries. Status: answers known.
C=C1C(=O)C[C@H]2C(=C)C(=O)O[C@@H]2C2C1CC[C@@]2(C)O (some centres undefined) = 0 (no)
C/C(=N\Nc1nc2ccccc2o1)c1ccncn1 = 1 (yes)
O=C(O)[C@@H]1NC[C@H]2C(Br)=NO[C@H]21 = 0 (no)
Oc1[nH]c(Nc2cccc(Br)c2)nc2ncnc1-2 = 0 (no)
O=C(O)c1nn[nH]c1S = 0 (no)
CN(C)CCNCCCNc1c2ccccc2nc2cccc([N+](=O)[O-])c12 = 1 (yes)
O=C(NN1C(=O)C(Cl)C1c1ccc(O)cc1)c1ccccc1O (centres undefined) = 0 (no)
CC(=O)Nc1ccc(-c2nc3ccccc3s2)cc1O = 0 (no)

Then there is this molecule:
// return assay outcome for C[N+](C)(C)CC1CCCCC1O (centres undefined)
0 (no)

---

- System: PC-3
- assay.text: NCI tumour cell line growth inhibition, 48 h
Activity calls are given as the source filed them. Rule as the data show it: active = GI50 up to about 1.1 µM and inactive = higher.
measured.attribute: GI50

Worked examples follow.
Cc1nn(C(=O)Cc2ccccc2)c2c1C(c1ccc(O)cc1)SC(=N)N2 (stereo not given) = > 100 µM (inactive)
O=C1CC2(CCN(Cc3ccccc3)CC2)C(=O)N1N1CCCCC1 = > 100 µM (inactive)
C=C(C)[C@H]1CC23C(=O)C(C(=O)C(C)C)=C(O)[C@](C)(C[C@H]2C1(C)C)C3=O [LALIBINONE B] = 12.6 µM (inactive)

Batch of 2 compounds: report GI50 for each.
1. COc1cccc(C2c3cc4c(cc3OC(N3CCOCC3)C2C)OCO4)c1O (stereo not given)
2. C/C(N)=N/OCc1nc(C)no1

1: 4.7 µM (inactive); 2: > 100 µM (inactive)

---

- System: PC-3
- assay.text: NCI tumour cell line growth inhibition, 48 h
Activity calls are given as the source filed them. No stated cut-off is given here; in the data, active = GI50 up to about 1.1 µM and inactive = higher. Numbered stars: 1 amine (or outer) side, 2 acyl side, 3 side chain; on linkers, the order of the positions; unused ones are H or OH. Bridge positions count the residues as written; N and C are the ends. Square brackets hold non-standard residues; d marks the D form. Peptide text beside a SMILES is read from it. I, II: the chains in the order shown. Actinocin(9to1) = Cc1c2oc3c(C)ccc(C(=O)[*:1])c3nc-2c(C(=O)[*:2])c(N)c1=O; X48 = O=C1CC(C(=O)[*:2])N([*:1])C1; NMeV = CN[CH](C(=O)O)C(C)C; Sar = CNCC(=O)O
Thanks in advance; please answer with one of these: yes (1) (active), no (0) (inactive)

// return assay outcome for `O=c1c(C(c2ccc3ccccc3c2)c2c(O)oc3ccccc3c2=O)c(O)oc2ccccc12`
no (0)

// return assay outcome for `O=C(c1ccco1)N(C(=O)N1CCN(c2ccccc2)CC1)S(=O)(=O)c1ccccc1`
no (0)

// return assay outcome for C=C1CCC(O)C/C1=C/C=C1\CCCC2(C)C1CCC2C(C)CCCC(C)C (stereo unspecified)
no (0)

// return assay outcome for `Cc1nc2ccc(S(=O)(=O)Nc3ccc(Cl)cc3)cc2c(=O)n1NC(=O)CNc1ccc(Cl)cc1`
no (0)

// return assay outcome for Cc1c2oc3c(C)ccc(C(=O)NC4C(=O)NC(C(C)C)C(=O)N5CC(=O)CC5C(=O)N(C)CC(=O)N(C)C(C(C)C)C(=O)OC4C)c3nc-2c(C(=O)NC2C(=O)NC(C(C)C)C(=O)N3CC(=O)CC3C(=O)N(C)CC(=O)N(C)C(C(C)C)C(=O)OC2C)c(N)c1=O (stereo unspecified) (I: TV[X48][Sar][NMeV] / II: TV[X48][Sar][NMeV]; ester I:1-I:C, II:1-II:C; linker I:N-II:N via Actinocin(9to1); configuration not given here)
yes (1)

// return assay outcome for CCOC(=O)CCC(NC(=O)N1CCN(c2c(C)nc(C)nc2O)CC1)C(=O)OCC (stereo unspecified)
no (0)

---

- Tested on: A498
- assay.text: NCI tumour cell line growth inhibition, 48 h
Structures can show the parent of a compound that is named as a salt. Activity calls are given as the source filed them. No stated cut-off is given here; in the data, active = GI50 up to about 1.1 µM and inactive = higher.
Would you kindly list GI50 for each of these molecules?

CCOC(=O)C1C=C1C(C)(C)O (configuration not stated) = > 10 µM (inactive)
CC(C)(C)OC(=O)N1C/C=C\C(=O)C2(OCCO2)c2ccccc21 = > 100 µM (inactive)
CC(=O)OC[C@@H](OC(C)=O)[C@H](OC(C)=O)[C@@H]1OC(C)(C)O[C@@H]1C1SCCCS1 = > 100 µM (inactive)
[O-][S+]1Cc2ccccc2CS1 (configuration not stated) = 76.6 µM (inactive)
N=c1oc2ccccc2cc1C(=O)NC12CC3CC(CC(C3)C1)C2 = 22.1 µM (inactive)
C/C(CC1SCCCS1)=C(/C)CC1SCCCS1 = > 100 µM (inactive)
Clc1cc(OC2C3CC4CC(C3)CC2C4)nc(Cl)n1 (configuration not stated) = 19.1 µM (inactive)
CNC(=S)/N=c1/sc(NC)nc2sc3c(c12)CCCC3 = > 100 µM (inactive)

Batch of 6 molecules: report GI50 for each.
1. O=C1CC2(CCN(Cc3ccccc3)CC2)C(=O)N1N1CCCCC1
2. C=Cc1c(C)c(O)cc2c1-c1ccc(O)c(C)c1CC2
3. COC(=O)C1(SC)C2CCC3C2CCC31 (configuration not stated)
4. Cc1nccc2c1[nH]c1cc(O)ccc12 [HARMOL HYDROCHLORIDE]
5. CCC1(CC)CC(=NNS(=O)(=O)c2ccc(C)cc2)C1
6. O=c1c(C(c2ccc3ccccc3c2)c2c(O)oc3ccccc3c2=O)c(O)oc2ccccc12

1. > 100 µM (inactive)
2. 11.6 µM (inactive)
3. > 100 µM (inactive)
4. 63.4 µM (inactive)
5. > 100 µM (inactive)
6. 36.3 µM (inactive)

---

Would you kindly list GI50 for each of these compounds?
- System: OVCAR-8
- assay.text: NCI tumour cell line growth inhibition, 48 h
Activity calls are given as the source filed them. Cut-off read from the data, not from the text of the source: active = GI50 up to about 1.1 µM and inactive = higher.

Worked examples follow.
Cc1ccc(-n2cc(-c3ccc(Cl)cc3)c(C#N)c2N)cc1 = 15.9 µM (inactive)
CCOC(=O)CCC(NC(=O)N1CCN(c2c(C)nc(C)nc2O)CC1)C(=O)OCC (stereo not given) = > 100 µM (inactive)
O=C1C2C(C(=O)N1Cc1ccccc1)N(Cc1ccccc1)C(=O)N2Cc1ccccc1 (stereo not given) = > 100 µM (inactive)
COc1ccc(OC)c([N+](=O)[O-])c1-c1nc2sccn2c1/C=N/N=C(N)N = > 100 µM (inactive)

Batch of 4 compounds: report GI50 for each.
1. CC(C)[Si](OC1=CCC[C@H]2NC(=O)[C@@H](Cc3ccc([N+](=O)[O-])cc3)[C@@]12C)(C(C)C)C(C)C
2. O=S(=O)(O)c1ccc2c(/N=N\c3ccc(F)cc3)c(O)c(S(=O)(=O)O)cc2c1
3. O=C(c1ccco1)N(C(=O)N1CCN(c2ccccc2)CC1)S(=O)(=O)c1ccccc1
4. COC(=O)C1C(OS(=O)(=O)O)CCC2CN3CCc4c([nH]c5ccccc45)C3CC21 (stereo not given)

1. 11.6 µM (inactive)
2. > 100 µM (inactive)
3. 32.6 µM (inactive)
4. > 100 µM (inactive)

Batch of 3 compounds: report GI50 for each.
1. CC(C)/C=C1\CCC(CN2CCCC2)C1=O (stereo not given)
2. CC(=O)OC1COC(N2C(=O)C(=O)c3ccccc32)C(OC(C)=O)C1OC(C)=O (stereo not given)
3. Nc1nc(Cl)c(N)c(NCC2(CO)CC(Cc3ccccc3)C2)n1 (stereo not given)

["10.4 µM (inactive)", "> 100 µM (inactive)", "56.9 µM (inactive)"]

Batch of 4 compounds: report GI50 for each.
1. C=CC(CBr)CCC(Br)C(C)(C)Br (stereo not given)
2. C=Cc1c(C)c(O)cc2c1-c1ccc(O)c(C)c1CC2
3. O=C1/C(=C/c2ccc(O)cc2)CCCC1CN1CCCCC1 (stereo not given)
4. CCOC(=O)C(NC(=O)c1ccccc1)(N1CCOCC1)C(F)(F)F (stereo not given)

["> 10 µM (inactive)", "17.5 µM (inactive)", "5.92 µM (inactive)", "> 100 µM (inactive)"]

Batch of 5 compounds: report GI50 for each.
1. CCOC(=O)C1C=C1C(C)(C)O (stereo not given)
2. C=C(C)[C@H]1CC23C(=O)C(C(=O)C(C)C)=C(O)[C@](C)(C[C@H]2C1(C)C)C3=O
3. O=c1/c(=C/c2ccc(Cl)cc2Cl)sc2nc3ccccc3n12
4. O=C1C[S+]([O-])C23c4cc5ccccc5n4CCC2CCCN13 (stereo not given)
5. OC(C/C(=N\N=C(/CC(O)(C(F)(F)F)C(F)(F)F)c1ccccc1)c1ccccc1)(C(F)(F)F)C(F)(F)F

["> 10 µM (inactive)", "17.9 µM (inactive)", "> 100 µM (inactive)", "> 100 µM (inactive)", "> 10 µM (inactive)"]
